Target: human ALDH9A1 (HsALDH9A1) (Homo sapiens, UniProt P49189)
Construct: full-length 494-residue protein, His-tag kept (pCDFDuet, BamHI/XhoI), recombinant from E. coli; silent polymorphism at Ile110 codon
Sequence (P49189 whole entry): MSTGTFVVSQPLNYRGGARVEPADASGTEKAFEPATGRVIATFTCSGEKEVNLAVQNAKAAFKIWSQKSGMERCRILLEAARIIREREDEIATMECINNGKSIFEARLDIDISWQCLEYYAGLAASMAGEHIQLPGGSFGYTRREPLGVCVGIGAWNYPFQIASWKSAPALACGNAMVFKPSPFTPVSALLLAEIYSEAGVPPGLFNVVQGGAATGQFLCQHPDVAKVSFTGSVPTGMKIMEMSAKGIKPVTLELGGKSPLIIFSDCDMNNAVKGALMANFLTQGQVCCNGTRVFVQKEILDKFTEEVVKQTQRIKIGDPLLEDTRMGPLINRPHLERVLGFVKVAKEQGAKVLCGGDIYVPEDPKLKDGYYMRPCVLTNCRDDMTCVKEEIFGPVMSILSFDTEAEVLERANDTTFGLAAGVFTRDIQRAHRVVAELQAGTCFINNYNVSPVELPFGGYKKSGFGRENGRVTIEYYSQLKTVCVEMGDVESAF
Test: NADH formation at […] nm, partial substrate inhibition fit
Assay type: biochemical
Details: substrate inhibition constant; 1 mM NAD+, 150 mM sodium pyrophosphate pH 7.5, 30 °C

{"columns": ["molecule", "Ki / mM"],
 "data": [
  ["N=C(N)NCCCC=O [GBAL]", 7.23],
  ["C[N+](C)(C)CCC=O [TMAPAL, 3-(trimethylamino)propionaldehyde]", 0.47],
  ["C[N+](C)(C)CCCC=O [TMABAL, 4-(trimethylamino)butyraldehyde]", 2.2],
  ["CN(C)CCCC=O [DMABAL]", 10.88]
]}

* * *

Target: human ALDH9A1 (HsALDH9A1) (Homo sapiens, UniProt P49189)
Construct: full-length 494-residue protein, His-tag kept (pCDFDuet, BamHI/XhoI), recombinant from E. coli; silent polymorphism at Ile110 codon
Assay: microscale thermophoresis
Type: binding

{"columns": ["compoundStructure", "Kd (µM)"],
 "data": [
  ["C[N+](C)(C)CCCC(=O)[O-]", 2600]
]}

* * *

Recorded pKd values for a group of compounds are listed next.
Biological target: human ALDH9A1 (HsALDH9A1) (Homo sapiens, UniProt P49189)
Construct: full-length 494-residue protein, His-tag kept (pCDFDuet, BamHI/XhoI), recombinant from E. coli; silent polymorphism at Ile110 codon
Assay: microscale thermophoresis, RED-tris-NTA labelled His-tagged enzyme
Assay type: binding
pKd: −log10 of the molar value.
valueKind: pKd

{"columns": ["compoundStructure", "testedSystem", "valueKind", "valueObserved"],
 "data": [
  ["C[N+](C)(C)CCCC=O", "human ALDH9A1 (HsALDH9A1) (Homo sapiens, UniProt P49189)", "pKd", 5.22],
  ["C[N+](C)(C)CC=O", "human ALDH9A1 (HsALDH9A1) (Homo sapiens, UniProt P49189)", "pKd", 3.77],
  ["NC(=O)c1ccc[n+]([C@@H]2O[C@H](COP(=O)([O-])OP(=O)(O)OC[C@H]3O[C@@H](n4cnc5c(N)ncnc54)[C@H](O)[C@@H]3O)[C@@H](O)[C@H]2O)c1", "human ALDH9A1 (HsALDH9A1) (Homo sapiens, UniProt P49189)", "pKd", 4.80]
]}

Data origin: paper PMC6487263
